Values were extracted from patent US10370727B2.

Molecular target: TrkA G667S (Homo sapiens, UniProt P04629, G667S)
Sequence (P04629 33-796 G667S): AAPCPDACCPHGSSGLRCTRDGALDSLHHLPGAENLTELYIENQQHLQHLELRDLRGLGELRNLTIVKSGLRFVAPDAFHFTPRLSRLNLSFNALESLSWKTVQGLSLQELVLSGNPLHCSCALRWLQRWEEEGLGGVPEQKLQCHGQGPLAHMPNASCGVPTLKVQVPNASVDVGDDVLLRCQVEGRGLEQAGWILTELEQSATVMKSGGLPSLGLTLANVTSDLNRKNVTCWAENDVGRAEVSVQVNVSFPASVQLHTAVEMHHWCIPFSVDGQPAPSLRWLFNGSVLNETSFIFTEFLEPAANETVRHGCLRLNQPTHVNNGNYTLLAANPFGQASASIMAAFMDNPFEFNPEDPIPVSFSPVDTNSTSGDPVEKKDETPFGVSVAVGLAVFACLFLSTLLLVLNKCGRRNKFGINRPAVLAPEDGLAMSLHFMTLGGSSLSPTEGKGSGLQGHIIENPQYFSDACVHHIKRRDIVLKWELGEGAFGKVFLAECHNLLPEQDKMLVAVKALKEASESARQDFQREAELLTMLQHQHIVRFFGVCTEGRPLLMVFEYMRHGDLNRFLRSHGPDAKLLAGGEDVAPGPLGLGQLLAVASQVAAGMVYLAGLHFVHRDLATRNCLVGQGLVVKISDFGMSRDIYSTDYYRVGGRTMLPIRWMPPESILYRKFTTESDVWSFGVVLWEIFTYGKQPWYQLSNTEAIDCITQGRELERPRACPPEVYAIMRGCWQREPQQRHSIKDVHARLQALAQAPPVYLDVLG
Assay: Trk enzyme assay ([33P] incorporation into poly-EAY)
Type: biochemical
Conditions: mutant TrkA G667S enzyme; 22° C., 60 minutes
# key: entry, value: log10(IC50)
On a log10 scale: recorded IC50, unit nM.

smiles data: CC1(NC(=O)c2cnn3ccc(N4CCC[C@@H]4c4cncc(F)c4)nc23)CC1
log10(IC50): 0.15
--
smiles data: O=C(Nc1cnn2ccc(N3CCC[C@@H]3c3cccc(F)c3)nc12)N1CC(O)C1
log10(IC50): 2.44
--
smiles data: O=C1NCCCOc2ccc(F)cc2[C@H]2CCCN2c2ccn3ncc1c3n2
log10(IC50): -0.52
--
smiles data: CC1(O)CN(C(=O)Nc2cnn3ccc(N4CCC[C@@H]4c4cc(F)ccc4Cl)nc23)C1
log10(IC50): 1.43

Retrieve log10(IC50) on TrkA G667S (Homo sapiens, UniProt P04629, G667S); query `CN(C)C(=O)Nc1cnn2ccc(N3CCC[C@@H]3c3cc(F)ccc3F)nc12`
1.29

Retrieve log10(IC50) on TrkA G667S (Homo sapiens, UniProt P04629, G667S); query `CC1(C)CNC(=O)c2cnn3ccc(nc23)N2CCC[C@@H]2c2cc(F)cnc2OC1`
-0.30

Retrieve log10(IC50) on TrkA G667S (Homo sapiens, UniProt P04629, G667S); query `O=C(NC1CC1)c1cnn2ccc(N3CCC[C@@H]3c3cncc(F)c3)nc12`
0.61

Retrieve log10(IC50) on TrkA G667S (Homo sapiens, UniProt P04629, G667S); query `O=C1NCC(F)(F)COc2ncc(F)cc2[C@H]2CCCN2c2ccn3ncc1c3n2`
-0.52

Retrieve log10(IC50) on TrkA G667S (Homo sapiens, UniProt P04629, G667S); query `O=C(Nc1cnn2ccc(N3CCC[C@@H]3c3cc(F)ccc3Cl)nc12)N1CC(O)C1`
1.33

* * *

Target: TrkA F589L (Homo sapiens, UniProt P04629, F589L)
Sequence (P04629 33-796 F589L): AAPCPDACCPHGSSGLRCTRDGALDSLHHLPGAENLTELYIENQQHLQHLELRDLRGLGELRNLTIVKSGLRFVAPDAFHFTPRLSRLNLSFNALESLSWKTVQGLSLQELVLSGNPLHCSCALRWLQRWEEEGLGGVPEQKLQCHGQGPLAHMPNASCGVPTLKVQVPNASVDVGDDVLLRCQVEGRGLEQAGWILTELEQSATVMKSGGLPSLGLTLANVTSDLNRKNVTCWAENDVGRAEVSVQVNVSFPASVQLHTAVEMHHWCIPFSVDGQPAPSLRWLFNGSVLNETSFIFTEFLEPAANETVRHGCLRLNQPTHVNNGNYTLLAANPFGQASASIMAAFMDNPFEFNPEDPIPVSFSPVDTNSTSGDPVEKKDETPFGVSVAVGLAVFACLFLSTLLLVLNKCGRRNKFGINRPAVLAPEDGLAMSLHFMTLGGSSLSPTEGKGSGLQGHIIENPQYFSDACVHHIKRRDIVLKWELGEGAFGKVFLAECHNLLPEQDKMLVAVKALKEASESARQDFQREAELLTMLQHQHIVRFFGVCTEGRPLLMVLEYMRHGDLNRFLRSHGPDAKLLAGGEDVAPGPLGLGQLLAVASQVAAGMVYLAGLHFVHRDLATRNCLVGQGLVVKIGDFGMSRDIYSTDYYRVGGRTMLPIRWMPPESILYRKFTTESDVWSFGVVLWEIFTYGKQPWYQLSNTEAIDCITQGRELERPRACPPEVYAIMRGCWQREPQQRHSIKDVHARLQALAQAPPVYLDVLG
Assay: Trk enzyme assay ([33P] incorporation into poly-EAY)
Type: biochemical
Details: mutant TrkA F589L enzyme; 22° C., 60 minutes
Cut-off 90 nM on IC50: below means true, at or above means false.

smiles data: O=C(NC1CC1)c1cnn2ccc(N3CCC[C@@H]3c3cncc(F)c3)nc12
system tested: TrkA F589L (Homo sapiens, UniProt P04629, F589L)
label: true
--
smiles data: O=C1NCC(F)(F)COc2ncc(F)cc2[C@H]2CCCN2c2ccn3ncc1c3n2
system tested: TrkA F589L (Homo sapiens, UniProt P04629, F589L)
label: true
--
smiles data: CC1(O)CN(C(=O)Nc2cnn3ccc(N4CCC[C@@H]4c4cc(F)ccc4Cl)nc23)C1
system tested: TrkA F589L (Homo sapiens, UniProt P04629, F589L)
label: false
--
smiles data: O=C1OCCOc2ncc(F)cc2[C@H]2CCCN2c2ccn3ncc1c3n2
system tested: TrkA F589L (Homo sapiens, UniProt P04629, F589L)
label: true
--
smiles data: O=C(Nc1cnn2ccc(N3CCC[C@@H]3c3cc(F)ccc3F)nc12)N1CC(O)C1
system tested: TrkA F589L (Homo sapiens, UniProt P04629, F589L)
label: false
--
smiles data: O=C1NCCCOc2cccc(n2)[C@H]2CCCN2c2ccn3ncc1c3n2
system tested: TrkA F589L (Homo sapiens, UniProt P04629, F589L)
label: true
--
smiles data: O=C1NC[C@@H](O)COc2ncc(F)cc2[C@H]2CCCN2c2ccn3ncc1c3n2
system tested: TrkA F589L (Homo sapiens, UniProt P04629, F589L)
label: true
--
smiles data: CC(=O)N1CCOc2ccc(F)cc2[C@H]2CCCN2c2ccn3ncc(c3n2)C1
system tested: TrkA F589L (Homo sapiens, UniProt P04629, F589L)
label: true

Field: below-cutoff. Rule: recorded IC50 strictly less than 90 nM. Subject: `CC1(C)CNC(=O)c2cnn3ccc(nc23)N2CCC[C@@H]2c2cc(F)cnc2OC1`
true

Field: below-cutoff. Rule: recorded IC50 strictly less than 90 nM. Subject: `O=C(Nc1cnn2ccc(N3CCC[C@@H]3c3cccc(F)c3)nc12)N1CC(O)C1`
false

Field: below-cutoff. Rule: recorded IC50 strictly less than 90 nM. Subject: `CN(C)C(=O)Nc1cnn2ccc(N3CCC[C@@H]3c3cc(F)ccc3F)nc12`
false

Field: below-cutoff. Rule: recorded IC50 strictly less than 90 nM. Subject: `CONC(=O)c1cnn2ccc(N3CCC[C@@H]3c3cc(F)cnc3OC)nc12`
true

Field: below-cutoff. Rule: recorded IC50 strictly less than 90 nM. Subject: `O=C1NCCCOc2ncc(F)cc2[C@H]2CCCN2c2ccn3ncc1c3n2`
true

Field: below-cutoff. Rule: recorded IC50 strictly less than 90 nM. Subject: `O=C1NCCCOc2ccc(F)cc2[C@H]2CCCN2c2ccn3ncc1c3n2`
true

Field: below-cutoff. Rule: recorded IC50 strictly less than 90 nM. Subject: `NC(=O)c1cnn2ccc(N3CCC[C@@H]3c3cc(F)ccc3F)nc12`
true

Field: below-cutoff. Rule: recorded IC50 strictly less than 90 nM. Subject: `O=C1NC[C@H](O)COc2ccc(F)cc2[C@H]2CC(F)(F)CN2c2ccn3ncc1c3n2`
true

Field: below-cutoff. Rule: recorded IC50 strictly less than 90 nM. Subject: `C[C@H]1CNC(=O)c2cnn3ccc(nc23)N2CCC[C@@H]2c2cc(F)cn(c2=O)C1`
true

Field: below-cutoff. Rule: recorded IC50 strictly less than 90 nM. Subject: `CC1(NC(=O)c2cnn3ccc(N4CCC[C@@H]4c4cncc(F)c4)nc23)CC1`
true
